# Test system: HOP-62
# procedure details: NCI tumour cell line growth inhibition, 48 h
Active and inactive are the calls of the source. Cut-off read from the data, not from the text of the source: active = GI50 up to about 1.1 µM and inactive = higher.
Outcomes: active, inactive

molecule: CCNCCCNc1c2ccccc2nc2ccccc12
class assignment: active
--
molecule: COc1ccc2cccc(C(=O)c3ccc(C)c4c3CCC4)c2c1
class assignment: inactive
--
molecule: COC(=O)c1ccccc1C1CN=NC12Cc1c(C)cc(C)cc1C2=O (stereo unspecified)
class assignment: inactive
--
molecule: O=C1OC(c2ccccc2)=N/C1=C\c1ccc(F)cc1
class assignment: inactive
--
molecule: O=C(O)CCC1(c2ccccc2)NC(=O)NC1=O (stereo unspecified)
class assignment: inactive
--
molecule: COc1ccc(Cn2c(C)nc3c2C(=O)c2ccccc2C3=O)cc1
class assignment: inactive
--
molecule: CC(C)(C)N(Cc1ccc2c(c1)OCO2)C(=O)/C=C\[S+]([O-])c1ccccc1 (stereo unspecified)
class assignment: inactive
--
molecule: [O-][Cl+3]([O-])([O-])O.c1ccc(C2=NN2c2ccccc2)cc1
class assignment: inactive
--
molecule: CCN(CC)c1ccc2cc(C(=O)Nc3ccccc3)c(=N)oc2c1
class assignment: inactive
--
molecule: CCCCN1C=CN2c3nc4cc(C)c(C)cc4n3C(C(=O)OC)=C(C(=O)OC)C12 (stereo unspecified)
class assignment: inactive
--
molecule: N#CI1OC(C(F)(F)F)(C(F)(F)F)c2ccccc21
class assignment: inactive
